biological target: Butyrylcholinesterase from equine serum (Equus caballus, UniProt P81908); construct: using BChE from equine serum (lyophilized powder ≥ 500 units/mg protein); purchased Sigma-Aldrich; host or cells: equine serum; assay: biochemical; details: BChE (IC50) µg/mL, isolated compounds, Table 4
Sequence (P81908 whole entry): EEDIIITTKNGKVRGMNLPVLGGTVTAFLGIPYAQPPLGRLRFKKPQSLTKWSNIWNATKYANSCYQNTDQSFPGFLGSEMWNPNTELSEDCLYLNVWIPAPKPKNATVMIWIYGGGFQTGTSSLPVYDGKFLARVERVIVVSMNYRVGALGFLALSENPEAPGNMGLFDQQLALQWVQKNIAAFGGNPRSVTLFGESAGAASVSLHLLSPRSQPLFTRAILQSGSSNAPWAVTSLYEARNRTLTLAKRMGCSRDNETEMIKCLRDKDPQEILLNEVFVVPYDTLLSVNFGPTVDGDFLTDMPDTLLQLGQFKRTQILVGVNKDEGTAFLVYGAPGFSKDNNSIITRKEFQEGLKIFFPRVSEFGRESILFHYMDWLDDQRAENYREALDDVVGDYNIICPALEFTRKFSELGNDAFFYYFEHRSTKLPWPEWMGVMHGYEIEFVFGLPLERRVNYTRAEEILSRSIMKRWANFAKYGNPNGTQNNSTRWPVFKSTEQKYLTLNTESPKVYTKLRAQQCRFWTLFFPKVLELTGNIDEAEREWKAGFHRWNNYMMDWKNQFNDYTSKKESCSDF
pIC50: −log10 of the molar value.
Metric: pIC50

Compound: O=C(O)/C=C/c1ccccc1 [Compound 5, Cinnamic acid]
Metric: pIC50
Assay result: 3.43
--
Compound: CC[C@H](CC[C@@H](C)[C@H]1CC[C@H]2[C@@H]3CC=C4C[C@@H](O)CC[C@]4(C)[C@H]3CC[C@]12C)C(C)C [Compound 3, β-sitosterol]
Metric: pIC50
Assay result: 3.80
--
Compound: O=C(O)C=Cc1ccc(O)cc1 [Compound 6, 4-Hydroxycinnamic acid]
Metric: pIC50
Assay result: 3.39
--
Compound: O=c1cc(-c2ccc(O)c(O)c2)oc2cc(O)cc(O)c12 [Compound 2, Luteolin]
Metric: pIC50
Assay result: 4.34
